Test system: OVCAR-5
Test: NCI tumour cell line growth inhibition, 48 h
The source made the active and inactive calls. Cut-off read from the data, not from the text of the source: active = GI50 up to about 1.1 µM and inactive = higher.
Measured GI50 by item

Field: example entries. Status: answers known.
Molecule	Result
CC1=NN(C(=O)CC(=O)Nc2ccccc2C)C(=O)C1/N=N/c1ccc(C(=O)O)cc1 (stereo unspecified)	> 100 µM (inactive)
COc1ccc(CCN2CCN(CCCc3ccccc3)CC2)cc1	77.1 µM (inactive)
Cc1ccsc1C(=S)Nc1ccc(Cl)c(/C=N/OC(C)C)c1	> 100 µM (inactive)
C=C(C(=O)OCC)C(=O)OCC	> 100 µM (inactive)
CC(C)c1ccc(/C=C2\N=C(c3ccc([N+](=O)[O-])cc3)OC2=O)cc1	> 100 µM (inactive)

State its GI50 on OVCAR-5: "CC(C)=C=CP(=O)(O)c1ccccc1"
> 100 µM (inactive)

State its GI50 on OVCAR-5: "C[S+](C)([O-])=Nn1c(=O)n2n(c1=O)[C@H]1CC[C@@H]2C1"
> 100 µM (inactive)

State its GI50 on OVCAR-5: "COc1cc2c(OC)cc1CSCc1sc(C)c(c1Br)CSC2"
> 100 µM (inactive)

---

Tested on: NCI-H226
Experiment: NCI tumour cell line growth inhibition, 48 h
Calls of active or inactive are those of the source. Rule as the data show it: active = GI50 up to about 1.1 µM and inactive = higher.
Return exactly one item of active, inactive

Call for entry "N#CCCNCCN(CCN(C(=O)Nc1ccccc1)c1ccccc1)C(=O)Nc1ccccc1" :
inactive

Call for entry "O=C1NC(S(=O)(=O)O)=NNC12c1ccccc1-c1ccccc12" :
inactive

Call for entry "O=C(c1ccccc1)n1cc(-c2ccccc2)c2c(=O)nc[nH]c21" :
inactive

Call for entry "COc1ccc2c(c1)c1cc(OC)ccc1n2CCCCOc1ccc(-c2c3ccccc3c(-c3ccc(OCCCCn4c5ccc(OC)cc5c5cc(OC)ccc54)cc3)c3ccccc23)cc1" :
inactive

Call for entry "O=c1c(-c2ccccc2)c(SCCO)n(-c2ccccc2)c(=S)n1-c1ccccc1" :
inactive

Call for entry "NCCCNCCSSCCCCS(=O)O" :
inactive

Call for entry "Cc1c2cccc-2ccc2c1[nH]c1ccc(Br)cc12" :
inactive

Call for entry "Oc1cc(CF)nc(S)n1" :
inactive

Call for entry CCOC(=O)Oc1ccc(C(CNC(C)C)OC(=O)OCC)cc1OC(=O)OCC (stereo not drawn) :
inactive

---

Test system: OVCAR-4
Assay: NCI tumour cell line growth inhibition, 48 h
Activity calls are given as the source filed them. Rule as the data show it: active = GI50 up to about 1.1 µM and inactive = higher. *1 amine or outer side, *2 acyl side, *3 side chain or, on linkers, in order; H or OH if unused. Where a SMILES comes first, the peptide text is derived from it. Bridges are numbered along the chain shown (N, C = ends). [ ]: non-standard residue; d: D form. ξ: configuration not given here. X10 = CCC(C)C(N[*:1])C(O)CC(=O)O[C@H](C(=O)C(C)C(=O)[*:2])C(C)C; NMeY = CN[C@@H](Cc1ccc(O)cc1)C(=O)O; ξNMeL = CNC(CC(C)C)C(=O)O; ξT = CC(O)C(N)C(=O)O
Return exactly one item of 1 (active), -1 (inactive)

Example cases with answers are listed next.
Compound	Cat
CCC(C)C1NC(=O)C(NC(=O)C(CC(C)C)N(C)C(=O)[C@@H]2CCCN2)C(C)OC(=O)[C@H](Cc2ccc(OC)cc2)N(C)C(=O)[C@@H]2CCCN2C(=O)[C@H](CC(C)C)NC(=O)C(C)C(=O)[C@H](C(C)C)OC(=O)CC1O (some centres undefined) (H-P[ξNMeL][ξT][X10]LP[NMeY](Me); ester 3-C)	1
CC1=NN(c2cccc(Cl)c2)C2(C1)SCC(=O)N2c1nc2ccccc2s1 (centres undefined)	-1
C=C1C(=O)[C@]23[C@H](O)[C@H]1CC[C@H]2[C@@]12CO[C@@]3(O)C[C@@H]1C(C)(C)CC[C@@H]2O	-1

Next compound, please.
Call for entry COC(=O)C1(C(=O)OC)N=C(C)OC1/C=C/c1ccccc1 (centres undefined) :
-1

---

Measured GI50 by item
Test system: EKVX
Test: NCI tumour cell line growth inhibition, 48 h
Active and inactive are the calls of the source. Cut-off read from the data, not from the text of the source: active = GI50 up to about 1.1 µM and inactive = higher.

Field: example entries. Status: answers known.
Compound	Test system	GI50
c1ccc2c(c1)n1nnnc1c1nnnn21	EKVX	> 100 µM (inactive)
COc1nc2ccc(CNc3ccc(C(=O)O)cc3)cc2nc1OC	EKVX	> 10 µM (inactive)
CSc1nc(-c2ccccc2)nc(N2CCOCC2)[s+]1	EKVX	> 100 µM (inactive)
O=C(NC/C=C/Br)NC1CCNc2ccccc21 (stereo not given)	EKVX	47.6 µM (inactive)
O=C1c2ccccc2-c2cc([N+](=O)[O-])c([N+](=O)[O-])cc21	EKVX	2.04 µM (inactive)

Entry under review: CC(C)(C)OC(=O)N1CCCC1C(=O)NCCNc1ccc(NCCNC(=O)C2CCCN2C(=O)OC(C)(C)C)c2c1C(=O)c1ccccc1C2=O (stereo not given) . Reported GI50?
27 µM (inactive)

Entry under review: CC(C)C1SCc2nc3ccccc3n21 (stereo not given) . Reported GI50?
32.4 µM (inactive)

Entry under review: "Cc1ccc(S(=O)(=O)Nc2ccccc2C=O)cc1" . Reported GI50?
25 µM (inactive)

Entry under review: "Cc1ccc(O)c(-c2cc(-c3cccc(Br)c3)on2)c1" . Reported GI50?
34.4 µM (inactive)

Entry under review: "C=C(C)[C@@H]1CC[C@]2(C(=O)O)CC[C@]3(C)[C@H](CC[C@@H]4[C@@]5(C)CC[C@H](C(=O)/C=C/c6ccc(O)cc6)C(C)(C)[C@@H]5CC[C@]43C)[C@@H]12" . Reported GI50?
2.47 µM (inactive)

Entry under review: CC(=O)OC1COC(N2CCc3cc([N+](=O)[O-])ccc32)C(OC(C)=O)C1OC(C)=O (stereo not given) . Reported GI50?
> 100 µM (inactive)

---

Measured GI50 by item
System: CCRF-CEM
Experiment: NCI tumour cell line growth inhibition, 48 h
Active and inactive are the calls of the source. Rule as the data show it: active = GI50 up to about 1.1 µM and inactive = higher.

Molecule	Test system	Result
COc1ccc2c(c1)[n+]([O-])c(-c1ccc(Br)cc1)c(N)[n+]2[O-]	CCRF-CEM	50.4 µM (inactive)
O=C(Nc1nc2ncn(CCOC(=O)c3ccccc3)c2c(=O)[nH]1)c1ccccc1	CCRF-CEM	9.71 µM (inactive)
COc1ccc(C2c3cc4c(cc3OC(O)(CO)C2C(=O)O)OCO4)c(OC)c1OC.COc1ccc(C2c3cc4c(cc3OC3(O)COC(=O)C23)OCO4)c(OC)c1OC (centres undefined)	CCRF-CEM	39.4 µM (inactive)

Entry under review: C=CCN(N=O)C(=O)NCCCCC(NC(C)=O)C(=O)NCc1ccccc1 (centres undefined) . Reported GI50?
> 100 µM (inactive)

Entry under review: "c1cc2nnc1SCCSCCSc1ccc(nn1)SCCSCCS2" . Reported GI50?
> 100 µM (inactive)

Entry under review: OC(C1CCCCCCCCCC1)C(O)C1CCCCCCCCCC1 (centres undefined) . Reported GI50?
> 100 µM (inactive)

Entry under review: "COc1ccc(S(=O)(=O)NNS(C)(=O)=O)cc1" . Reported GI50?
70 µM (inactive)

---

Test system: Malme-3M
Assay: NCI tumour cell line growth inhibition, 48 h
The source made the active and inactive calls. Cut-off read from the data, not from the text of the source: active = GI50 up to about 1.1 µM and inactive = higher.
Return exactly one item of active, inactive

>>> print(df.to_string())
                                   compound       cat
0         Cn1c2ccccc2c2[nH]c3ccccc3c(=O)c21  inactive
1  N#Cc1ccc(CSC2=C(c3ccc(Cl)cc3)S/C(=C3\SC(SCc4ccc(C#N)cc4)=C(c4ccc(Cl)cc4)S3)S2)cc1  inactive
2  CC(C)C1CN1CC(O)Cn1ccnc1[N+](=O)[O-] (stereo unspecified)  inactive

Next compound, please.
Call for entry "CC[C@H](NC1=C(Cl)C(=O)c2c(O)ccc(O)c2C1=O)C(=O)OC" :
inactive

---

Test system: HL-60
Test: NCI tumour cell line growth inhibition, 48 h
Calls of active or inactive are those of the source. No stated cut-off is given here; in the data, active = GI50 up to about 1.1 µM and inactive = higher.
Return exactly one item of Yes (active), No (inactive)

Compound	Test system	Cat
O=C(O)c1cc(-c2ccc(-c3ccccc3)cc2)nc2cc3ccccc3cc12	HL-60	No

Call for entry "N#C/C(=C\c1c[nH]c2ccccc12)C(=O)c1ccc(O)c(O)c1" :
No

Call for entry CC(=O)NC1C(OCc2ccccc2)OC(CO)C(O)C1OCC(=O)N[C@@H](C)C(=O)N[C@H](CCC(=O)NCCCNc1c2ccccc2nc2cccc([N+](=O)[O-])c12)C(N)=O (stereo partly specified) :
Yes

Call for entry COc1cc(C2C(C(=O)O)=C(CO)Oc3cc4c(cc32)OCO4)cc(OC)c1OC (stereo unspecified) :
No

---

Measured GI50 by item
Tested on: HCT-116
Assay: NCI tumour cell line growth inhibition, 48 h
Calls of active or inactive are those of the source. Rule as the data show it: active = GI50 up to about 1.1 µM and inactive = higher.

Field: example entries. Status: answers known.
>>> print(df.to_string())
                                   compound               result
0  CC(=O)C(C)CCOC1(C)OCCC1C (configuration not stated)  > 100 µM (inactive)
1        O=[N+]([O-])c1cc(Cl)cc2cc(Cl)cnc12   95.1 µM (inactive)
2  CC1(C)OC(COCCOCCCCCO)C(COCCOCCCCCO)O1 (configuration not stated)  > 100 µM (inactive)
3  CNC(=S)OCCC(C)CCCC(C)C (configuration not stated)   16.7 µM (inactive)
4  COc1ccc(NC(=O)COC(=O)c2cccc3c(=O)c4ccccc4[nH]c23)cc1   12.9 µM (inactive)

Entry under review: COC(=O)C1(C(=O)OC)N=C(C)OC1/C=C/c1ccccc1 (configuration not stated) . Reported GI50?
> 100 µM (inactive)

Entry under review: COc1ccc(N(CN2C(=O)CCC2OC)C(C)=O)cc1 (configuration not stated) . Reported GI50?
> 100 µM (inactive)
